test system: human endothelial cells, TNFa-induced E-selectin, imaging; test: E-selectin induction blockers, endothelial cells – imaging, retest plus dose response, cell count, confirmation (AID 1288)
Active and inactive are the calls of the source. No rule for the calls is given here.
Please go through the items and note down their IC50.

[
  {
    "compound": "O=C(Nc1ccccc1)C1=C(c2ccccc2)S(=O)(=O)CCS1(=O)=O",
    "test.system": "human endothelial cells, TNFa-induced E-selectin, imaging",
    "IC50": "7.63 µM"
  },
  {
    "compound": "Cc1ccc(-c2nc(NC(=O)c3nn(C)cc3[N+](=O)[O-])sc2C)cc1",
    "test.system": "human endothelial cells, TNFa-induced E-selectin, imaging",
    "IC50": "5.25 µM"
  },
  {
    "compound": "CN(C)C(=O)Oc1c(Cl)cc(Cl)c2cccnc12",
    "test.system": "human endothelial cells, TNFa-induced E-selectin, imaging",
    "IC50": "2.55 µM"
  },
  {
    "compound": "COc1ccc(NC(=O)/C(Cl)=C(/Cl)S(=O)Cc2ccccc2Cl)cn1 (configuration not stated)",
    "test.system": "human endothelial cells, TNFa-induced E-selectin, imaging",
    "IC50": "5.39 µM"
  },
  {
    "compound": "CCN1C/C(=C/c2ccc(OC)c(O)c2)C(=O)/C(=C/c2ccc(OC)c(O)c2)C1",
    "test.system": "human endothelial cells, TNFa-induced E-selectin, imaging",
    "IC50": "3.01 µM"
  },
  {
    "compound": "COCC(C)NC(=O)CCS(=O)(=O)c1nc(-c2ccc(OC)cc2)cc(C(F)(F)F)n1 (configuration not stated)",
    "test.system": "human endothelial cells, TNFa-induced E-selectin, imaging",
    "IC50": "> 10 µM (inactive)"
  }
]

Hi! Can you tell me IC50 for each of these compounds?
1. N#Cc1ccc(-c2cccnc2)nc1SCc1ccc(Cl)c(Cl)c1
2. N#CC(C#N)=C1C=CC=CN1/C(=C\c1ccco1)C(=O)c1ccc(-c2ccccc2)cc1
3. CC(C)(C)C(=O)/C(=C\c1cccc([N+](=O)[O-])c1)n1cncn1
4. COc1ccc(CS(=O)(=O)/C(Cl)=C(/Cl)C(=O)Nc2ccc(OC)nc2)cc1
5. COc1ccc(NC(=O)c2cc3c(Cl)nc4ccccc4c3s2)c(OC)c1

[out]
["2.75 µM", "2.85 µM", "3.04 µM", "> 10 µM (inactive)", "> 10 µM (inactive)"]

For every record below, what is its IC50?
1. C=CCSc1nc2ccccc2n1C(=O)/C=C/c1cc(OC)c(OC)c(OC)c1
2. COCCN(CC(=O)NC1CCCCC1)C(=O)/C=C/C(=O)c1ccc(OC)cc1O

[out]
["2.17 µM", "> 10 µM (inactive)"]

###

system: human endothelial cells, TNFa-induced E-selectin, imaging; assay: E-selectin induction blockers, endothelial cells – imaging, retest plus dose response, cell count, confirmation (AID 1288)
The source made the active and inactive calls. The rule behind the calls is not given here.
quantity.kind: IC50

State recorded IC50 for all listed molecules.
1. O=C(Nc1ccc2nc(SCc3ccc(Cl)cc3)sc2c1)c1ccccc1C(=O)N1CCOCC1
2. Oc1ccc(N2CCN(c3ncnc4sc(-c5ccccc5)cc34)CC2)cc1
3. C=CS(=O)(=O)c1ccc(Oc2ccc(S(=O)(=O)C=C)cc2)cc1
4. O=C(Nc1ccc2oc(-c3cccnc3)nc2c1)c1ccc([N+](=O)[O-])o1
5. CC(C)(C)C(=O)/C(=C\c1ccc([N+](=O)[O-])cc1)n1cncn1
6. C#CC(=O)N(c1cccc(OC)c1)C(C(=O)NC1CCCC1)c1cccs1 (stereo not drawn)

[out]
1. 2.83 µM
2. 1.88 µM
3. > 10 µM (inactive)
4. 2.73 µM
5. > 10 µM (inactive)
6. > 10 µM (inactive)

###

system: human endothelial cells, TNFa-induced E-selectin, imaging; assay: E-selectin induction blockers, endothelial cells – imaging, retest plus dose response, cell count, confirmation (AID 1288)
Activity calls are given as the source filed them. The rule behind the calls is not given here.
quantity.kind: IC50

[
  {
    "compound": "O=Cc1s/c(=N\\S(=O)(=O)c2ccccc2)n(CCCCl)c1Cl",
    "IC50": "> 10 µM (inactive)"
  },
  {
    "compound": "COC(=O)/C=C/S(=O)(=O)c1ccc(NC(C)=O)cc1",
    "IC50": "> 10 µM (inactive)"
  },
  {
    "compound": "Cc1ccc2nc(-c3ccc(NC(=O)CCN4C(=O)c5ccccc5C4=O)cc3)sc2c1",
    "IC50": "> 10 µM (inactive)"
  }
]

Would you kindly look at the next entry?
[in] Give the measured IC50 of CC(C)Oc1ccc(/C=N/NC(=O)C(CSCc2ccccc2)NC(=O)c2ccc([N+](=O)[O-])cc2)cc1 (centres undefined) .
[out] > 10 µM (inactive)

###

tested on: human endothelial cells, TNFa-induced E-selectin, imaging; assay: E-selectin induction blockers, endothelial cells – imaging, retest plus dose response, cell count, confirmation (AID 1288)
Calls of active or inactive are those of the source. How the calls were made is not given here.
quantity.kind: IC50

These solved cases illustrate the format of a correct answer.
[
  {
    "molecule": "CCOC(=O)CS(=O)(=O)c1nc(-c2ccc(F)cc2)cc(C(F)(F)F)n1",
    "measurement": "> 10 µM (inactive)"
  },
  {
    "molecule": "CCOC(=O)/C=C/S(=O)(=O)c1ccc(NC(C)=O)cc1",
    "measurement": "1.39 µM"
  },
  {
    "molecule": "Cc1cc(C)cc(NC(=O)c2ccc([N+](=O)[O-])o2)c1",
    "measurement": "2.11 µM"
  },
  {
    "molecule": "COc1ccc(NC(=O)/C(Cl)=C(/Cl)S(=O)(=O)Cc2ccc(C)cc2)cn1",
    "measurement": "> 10 µM (inactive)"
  },
  {
    "molecule": "Cc1c(Nc2cc(Cl)c3nonc3c2[N+](=O)[O-])c(=O)n(-c2ccccc2)n1C",
    "measurement": "6.67 µM"
  }
]

Look up IC50 for the entries below, preserving their order.
1. CCN(CC)c1ccc2c(Cl)c(Br)c(=O)oc2c1
2. CS(=O)(=O)c1ccc(S(=O)CC(=O)OCc2ccccc2)c([N+](=O)[O-])c1 (centres undefined)
3. Cn1cc([N+](=O)[O-])c(C(=O)Nc2nc(-c3ccc(Cl)cc3)cs2)n1
4. COc1ccc(NC(=O)/C(Cl)=C(/Cl)S(=O)Cc2ccc(Cl)cc2)cn1 (centres undefined)
5. CN1/C(=C/C(=O)c2nc(S(C)(=O)=O)ncc2Cl)C(C)(C)c2ccccc21
6. CN1C2CCC1/C(=C/c1ccccn1)C(=O)/C2=C\c1ccccn1
7. Cc1ccc2nc3cc([N+](=O)[O-])cc([N+](=O)[O-])c3cc2c1
8. Cc1ccccc1NC1=C/C(=N\S(=O)(=O)c2cccs2)c2ccccc2C1=O

[out]
2.16 µM
> 10 µM (inactive)
> 10 µM (inactive)
1.66 µM
> 10 µM (inactive)
2.8 µM
> 10 µM (inactive)
> 10 µM (inactive)

Report IC50 for every entry below.
1. Cc1ccc(C(=O)OCn2ncc(Cl)c(Cl)c2=O)cc1
2. Cc1ccc(Cl)c(NC(=O)COC(=O)c2ccccc2C(=O)c2ccc(Cl)c([N+](=O)[O-])c2)c1Cl
3. CC(C)(C)C1=CC(=O)C(=O)C(C(C)(C)C)=C1
4. COC(=O)C1CN(C#N)N(c2ccc(Cl)cc2)C12c1ccccc1-c1ccccc12 (centres undefined)
5. O=C(/C=C/c1cccc([N+](=O)[O-])c1)n1cnc2ccccc21
6. COc1ccc(-c2nnc(SCC(=O)N3CCOCC3)o2)cc1OC
7. COc1cccc(N2CCN(c3ncnc4c3[nH]c3ccc(F)cc34)CC2C)c1 (centres undefined)

[out]
1: > 10 µM (inactive); 2: > 10 µM (inactive); 3: > 10 µM (inactive); 4: > 10 µM (inactive); 5: 3.81 µM; 6: 4.05 µM; 7: 1.41 µM

Please state, for each entry, its recorded IC50.
1. Cc1ccc(-c2nc(NC(=O)c3nn(C)cc3[N+](=O)[O-])sc2C)cc1C
2. O=C(OCn1ncc(Cl)c(Cl)c1=O)c1ccccc1Cl
3. COc1cc(NC(=O)Cn2ncc(Cl)c(Cl)c2=O)c(C)cc1[N+](=O)[O-]
4. COC(=O)c1ccccc1NC(=O)c1ccc(-c2cccc(Cl)c2)o1
5. C#CC(=O)N(c1cc(OC)ccc1OC)C(C(=O)NC1CCCC1)c1cccs1 (centres undefined)
6. O=C(Cn1ncc(Cl)c(Cl)c1=O)N1CCc2ccccc21
7. COc1ccc(Oc2cc(NC(=O)c3nn(C)cc3[N+](=O)[O-])cc([N+](=O)[O-])c2)cc1

[out]
["> 10 µM (inactive)", "> 10 µM (inactive)", "> 10 µM (inactive)", "2.09 µM", "9.61 µM", "2.48 µM", "3.5 µM"]

Please look at the items below and tell me IC50 for each one, in order.
1. Cn1c(SC2=CS(=O)(=O)c3ccccc32)nc2ccccc21
2. O=C(CS(=O)c1ccc(C(F)(F)F)cc1[N+](=O)[O-])Oc1ccccc1 (centres undefined)

[out]
["2.53 µM", "> 10 µM (inactive)"]
